- Target entity: ENPP1 (Homo sapiens, UniProt P22413)
- Sequence (P22413 whole entry): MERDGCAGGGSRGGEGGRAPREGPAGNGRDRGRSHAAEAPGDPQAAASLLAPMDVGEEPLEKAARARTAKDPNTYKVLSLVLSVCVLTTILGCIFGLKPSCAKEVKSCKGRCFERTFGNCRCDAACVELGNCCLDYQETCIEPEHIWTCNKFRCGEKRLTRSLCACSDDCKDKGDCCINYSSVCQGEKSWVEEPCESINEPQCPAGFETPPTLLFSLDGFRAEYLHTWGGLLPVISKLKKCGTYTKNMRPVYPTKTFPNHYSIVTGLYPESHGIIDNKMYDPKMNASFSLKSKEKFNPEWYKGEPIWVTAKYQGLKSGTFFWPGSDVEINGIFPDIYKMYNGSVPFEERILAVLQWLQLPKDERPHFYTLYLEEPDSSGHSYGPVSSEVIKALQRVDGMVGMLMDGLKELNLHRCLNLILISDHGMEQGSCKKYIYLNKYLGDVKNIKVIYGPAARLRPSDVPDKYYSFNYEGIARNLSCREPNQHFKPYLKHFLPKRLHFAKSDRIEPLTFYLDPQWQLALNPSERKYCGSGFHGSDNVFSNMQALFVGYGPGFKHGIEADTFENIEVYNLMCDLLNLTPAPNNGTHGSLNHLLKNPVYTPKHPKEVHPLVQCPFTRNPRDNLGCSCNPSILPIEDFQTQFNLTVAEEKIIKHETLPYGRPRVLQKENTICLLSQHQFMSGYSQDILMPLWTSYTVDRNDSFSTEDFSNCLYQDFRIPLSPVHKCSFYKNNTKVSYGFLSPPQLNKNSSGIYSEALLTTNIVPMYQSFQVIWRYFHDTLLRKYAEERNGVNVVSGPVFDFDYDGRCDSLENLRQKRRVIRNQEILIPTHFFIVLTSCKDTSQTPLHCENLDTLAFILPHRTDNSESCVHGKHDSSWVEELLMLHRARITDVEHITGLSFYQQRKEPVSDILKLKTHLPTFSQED
- Protocol details: Indirect quantitation of 2',3'-cGAMP hydrolysis (AMP-Glo Assay kit)
- Format: biochemical
- Stated conditions: cGAMP substrate; Ki from IC50 by Cheng-Prusoff; read-out: ENPP1 Inhibition -cGAMP: Ki
# maps each entry to its Ki

Recorded Ki, per entry:
1) NS(=O)(=O)N1CCc2ccc(-c3ncnc4ccccc34)cc2C1 :: 100 to 1000 nM
2) COc1ccc2c(-c3ccc(CN(C4CC4)S(N)(=O)=O)cc3)ncnc2c1 :: 100 to 1000 nM
3) NS(=O)(=O)NCc1ccc(-c2ccnc3cc(F)ccc23)cc1 :: < 100 nM
4) COc1cc2nccc(NC(C)c3ccc(NS(N)(=O)=O)cc3)c2cc1OC (centres unmarked) :: > 1000 nM

Here's the next entry for you.
Ask: Supply reported Ki belonging to this molecule: COc1cc2c(N3CCC4(CC3)CCN(S(N)(=O)=O)C4)c(C#N)cnc2cn1
Reply: < 100 nM

###

- Target entity: ENPP1 (Homo sapiens, UniProt P22413)
- Protocol details: Indirect quantitation of 2',3'-cGAMP hydrolysis (AMP-Glo Assay kit)
- Type: biochemical
- Stated conditions: cGAMP substrate; Ki from IC50 by Cheng-Prusoff; read-out: ENPP1 Inhibition -cGAMP: Ki
# maps each entry to its Ki

Recorded Ki, per entry:
1) COc1cc(F)c2c(-c3ccc(CNS(N)(=O)=O)cc3)ccnc2c1 [Example 394] :: < 100 nM
2) COc1ccc2c(-c3ccc(CS(N)(=O)=O)cc3)ccnc2c1 [Example 406] :: 100 to 1000 nM
3) COc1ccc2c(N3CCc4cc(NS(N)(=O)=O)ccc43)ccnc2c1 [Example 59] :: < 100 nM

Ask: Supply reported Ki belonging to this compound: COc1cc2ncc(C#N)c(-c3ccc4c(c3)CN(S(N)(=O)=O)CC4)c2cc1F [Example 316]
Reply: < 100 nM

Ask: Supply reported Ki belonging to this compound: COc1cc2ncnc(NCCc3ccc(NS(N)(=O)=O)cc3)c2cc1OC [Example 156]
Reply: < 100 nM

Ask: Supply reported Ki belonging to this compound: COc1cc2nccc(Nc3ccc(NS(=O)(=O)C(F)(F)F)cc3)c2cc1OC [Example 174]
Reply: 100 to 1000 nM

###

- Target entity: ENPP1 (Homo sapiens, UniProt P22413)
- Protocol details: ENPP1 enzyme assay with cGAMP substrate (AMP-Glo)
- Assay type: biochemical
- Parameters: purchased R&D Systems
- Stated conditions: cGAMP substrate; Ki from IC50 by Cheng-Prusoff; read-out: cGAMP: Ki
Readout type: Ki

Recorded Ki, per entry:
1) COc1cc2ncc(C#N)c(N3CCC(CCNS(N)(=O)=O)CC3)c2cc1OC :: < 100 nM
2) COc1cc2ncnc(NCc3ccc(NS(N)(=O)=O)cc3)c2cc1OC :: < 100 nM
3) COc1cc2ncnc(N3CCc4c(cccc4NS(N)(=O)=O)C3)c2cc1OC :: < 100 nM

Ask: Supply reported Ki belonging to this compound: COc1cc2nc(-c3ccncc3)nc(N3CCC(CCNS(N)(=O)=O)CC3)c2cc1OC
Reply: 100 to 1000 nM

Ask: Supply reported Ki belonging to this compound: NS(=O)(=O)NCCC1CCN(c2ncnc3ccccc23)CC1
Reply: 100 to 1000 nM

Ask: Supply reported Ki belonging to this compound: COc1cc2ncnc(N3CCC4(CC3)CCN(S(N)(=O)=O)C4)c2cc1OC
Reply: < 100 nM

Ask: Supply reported Ki belonging to this compound: COc1cc2ncnc(N3CCC(NS(N)(=O)=O)CC3)c2cc1OC
Reply: 100 to 1000 nM

Ask: Supply reported Ki belonging to this compound: Cn1cnc2ncnc(N3CCC(CCNS(N)(=O)=O)CC3)c21
Reply: < 100 nM

Ask: Supply reported Ki belonging to this compound: COc1cc2nc(N)nc(N3CCC(CCNS(N)(=O)=O)CC3)c2cc1OC
Reply: < 100 nM

Ask: Supply reported Ki belonging to this compound: COc1cc2nccc(N3CCC(CCNS(N)(=O)=O)CC3)c2cc1OC
Reply: < 100 nM

Where do the numbers come from? From patent US20230183239A1.
